Tested on: Spodoptera litura
Assay summary: Insecticidal effect for Spodoptera litura by immersion treatment of host crop root (Test Example 4)
Format: in vivo
Assay conditions: 25 ppm; soybean root immersion 5 days; second-instar larvae of Spodoptera litura; fifth day after
Entries and their rate of dead pests (%)
Just the number plus its unit, please.

- Compound: "O=C(c1c(F)cccc1F)N1COCN(c2ccc([S+]([O-])C(F)(F)F)cc2Cl)C1=O (centres unmarked) [I-75]"
  rate of dead pests (%): "100%"
- Compound: "CS(=O)(=O)N1CN(C(=O)c2c(F)cccc2F)C(=O)N(c2cc(Cl)c(F)c(Cl)c2F)C1 [III-58]"
  rate of dead pests (%): "100%"
- Compound: "O=C(c1c(Cl)cccc1Cl)N1COCN(c2ccc([S+]([O-])C(F)F)cc2F)C1=O (centres unmarked) [I-396]"
  rate of dead pests (%): "100%"
- Compound: "O=C(c1c(F)cccc1F)N1COCN(c2ccc(SC(F)(F)F)cc2Cl)C1=O [I-74]"
  rate of dead pests (%): "100%"
- Compound: "C=CCSc1ccc(N2COCN(C(=O)c3c(F)cccc3F)C2=O)c(F)c1 [I-59]"
  rate of dead pests (%): "100%"

Documented rate of dead pests (%) of O=C(c1c(F)cccc1Cl)N1COCN(c2ccc([S+]([O-])C(F)(F)C(F)(F)C(F)(F)F)cc2F)C1=O (centres unmarked) [I-321] : 100%

Documented rate of dead pests (%) of O=C(c1c(F)cccc1F)N1COCN(c2cc(Cl)c(SC(F)(F)F)cc2F)C1=O [I-98] : 95%

Documented rate of dead pests (%) of O=C(c1c(F)cccc1F)N1COCN(c2ccc([S+]([O-])C(F)(F)C(F)Cl)cc2F)C1=O (centres unmarked) [I-8] : 100%
